Origin of the recorded values: PubChem BioAssay AID1159580

Assay: chemical genetic growth profiling, strain panel (AID 1159580);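 note: tested at 20 µM; growth read once vehicle control cultures reached saturation at 30 °C; 1 = growth at the plate median or of vehicle wells; lower values mean less growth of the strain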
Condition Details: S. cerevisiae deletion strains, growth OD, locus YLR371W, strain rom2
About 2,000 (36%) of roughly 5,500 compounds were called active. Not shown: some 18% with an inconclusive outcome. Cut-off read from the data, not from the text of the source: active = normalized growth mostly below about 0.91 (no sharp cut-off); inconclusive = no clear call, values can overlap the other calls; inactive = mostly above about 0.92. The list shows a part of the results.
Outcome codes: T = active, F = inactive

- Compound: "NC(=O)c1cc[n+](CC2=C(C(=O)O)N3C(=O)C(NC(=O)C(c4ccccc4)S(=O)(=O)[O-])C3SC2)cc1 (configuration not stated)"
  Class Assignment: "F"
- Compound: "CCCCC(CC)CN=C(N)NC(N)=NCCCCCCN=C(N)NC(N)=NCC(CC)CCCC (configuration not stated)"
  Class Assignment: "T"
- Compound: "C=CC1=C(C)/C(=C/c2[nH]c(Cc3[nH]c(/C=C4\\NC(=O)C(C)=C4C=C)c(C)c3CCC(=O)O)c(CCC(=O)O)c2C)NC1=O"
  Class Assignment: "F"
- Compound: "S=c1[nH]c2ccccc2s1"
  Class Assignment: "F"
- Compound: "CC1=C(/C=C/C(C)=C/C=C/C(C)=C/C=C/C=C(C)/C=C/C=C(C)/C=C/C2=C(C)CCCC2(C)C)C(C)(C)CCC1"
  Class Assignment: "F"
- Compound: "COc1ccc(/C=C/c2cc(O)cc(O)c2)cc1"
  Class Assignment: "T"
- Compound: "C=CCc1cc(OC)c2c(c1OC)OCO2"
  Class Assignment: "F"

----------
Assay: chemical genetic growth profiling, strain panel (AID 1159580)
Condition Details: S. cerevisiae deletion strains, growth OD, locus YHR205W, strain SCH9, stronger effect = lower value
The campaign covered roughly 5,500 compounds. About 2,000 (36%) were called active. Another 18% or so got no clear call; they are omitted. The list shows a part of the results.

- Smi: "Cc1cc(C(=O)O/N=C(/N)c2ccc(C(C)(C)C)cc2)no1"
  normalized growth: 0.822
- Smi: "O=C(CCSc1cccs1)Nc1cccc(C(F)(F)F)c1"
  normalized growth: 0.807
- Smi: "O=S(=O)(Nc1cc(C(F)(F)F)ccc1F)c1cc(C(F)(F)F)ccc1Cl"
  normalized growth: 0.887

----------
Assay: chemical genetic growth profiling, strain panel (AID 1159580)
Condition Details: S. cerevisiae deletion strains, growth OD, locus YDR069C, strain doa4, stronger effect = lower value
Screen size: about 5,500 compounds; about 2,000 (36%) were called active. Not shown: some 18% with an inconclusive outcome. Some of the results follow.

- Molecule: "CC[C@]12CCCN3CCc4c(n(c5ccccc45)[C@](O)(C(=O)OC)C1)[C@@H]32"
  normalized growth: 0.991
- Molecule: "CC1(C)O[C@@H]2[C@@H](CO[C@@]3(COS(N)(=O)=O)OC(C)(C)O[C@@H]23)O1"
  normalized growth: 0.994
- Molecule: "CCCN(CCC)CCc1cccc2c1CC(=O)N2"
  normalized growth: 0.983
- Molecule: "O=C(NC(=O)c1c(F)cccc1F)Nc1cc(Cl)c(OC(F)(F)C(F)C(F)(F)F)cc1Cl (stereo not drawn)"
  normalized growth: 0.989
- Molecule: "CC(Cc1ccc(O)c(O)c1)(NN)C(=O)O (stereo not drawn)"
  normalized growth: 0.99
- Molecule: "COc1ccc(/C=C/c2cc(O)cc(O)c2)cc1"
  normalized growth: 1.02
- Molecule: "CC(=O)OCC(=O)[C@@]12OC(C)(C)O[C@@H]1CC1C3C[C@H](F)C4=CC(=O)C=C[C@]4(C)[C@@]3(F)[C@@H](O)C[C@@]12C (stereo partly drawn)"
  normalized growth: 0.998
- Molecule: "CN(Cc1cc(Br)cc(Br)c1N)C1CCCCC1"
  normalized growth: 0.983

----------
Measured normalized growth, listed per entry for reference.
Assay: chemical genetic growth profiling, strain panel (AID 1159580);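 note: tested at 20 µM; growth read once vehicle control cultures reached saturation at 30 °C; 1 = growth at the plate median or of vehicle wells; lower values mean less growth of the strain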
Condition Details: S. cerevisiae deletion strains, growth OD, locus YEL061C, strain CIN8 (second series), stronger effect = lower value
The campaign covered roughly 5,500 compounds. About 2,000 (36%) were called active. About 18% were inconclusive and are not listed. This is one part of the list.

- Compound: "O=C1OCCN1/N=C\\c1ccc([N+](=O)[O-])o1"
  normalized growth: 1
- Compound: "CC12CCC(CC1)C(C)(C)O2"
  normalized growth: 0.98
- Compound: "COc1cc(C)c2c(c1C=O)Oc1c(c(C)c(O)c3c1C(O)OC3=O)OC2=O (configuration not stated)"
  normalized growth: 1
- Compound: "CC1=C(/C=C/C(C)=C/C=C/C(C)=C\\C(=O)O)C(C)(C)CCC1"
  normalized growth: 0.991
- Compound: "CC12CCC3C(CC=C4CC(O)CCC43C)C1CCC2=O (configuration not stated)"
  normalized growth: 1.01
- Compound: "O=C(NC(Cc1cc(=O)[nH]c2ccccc12)C(=O)O)c1ccc(Cl)cc1 (configuration not stated)"
  normalized growth: 1
- Compound: "CC(=O)O[C@H]1CC[C@@]2(C)C(=CCC3C2CC[C@@]2(C)C3CC[C@@H]2C(C)CCCC(C)C)C1 (some centres not stated)"
  normalized growth: 0.992

----------
Assay: chemical genetic growth profiling, strain panel (AID 1159580);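 note: tested at 20 µM; growth read once vehicle control cultures reached saturation at 30 °C; 1 = growth at the plate median or of vehicle wells; lower values mean less growth of the strain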
Condition Details: S. cerevisiae deletion strains, growth OD, locus YGL173C, strain kem1, stronger effect = lower value
About 2,000 (36%) of roughly 5,500 compounds were called active. Not shown: some 18% with an inconclusive outcome. This is one part of the list.
Labelling: normalized growth reported below 1 becomes true (1); at or above becomes false (0).

- Molecule: "C=CCc1cc(OC)c2c(c1OC)OCO2"
  Class Assignment: "true (1)"
- Molecule: "CC1(C)CC2C1CCC1(C)OC1CCC2(C)O (configuration not stated)"
  Class Assignment: "false (0)"
- Molecule: "COc1ccc(/C=C/C(=O)c2cc(O)ccc2O)cc1"
  Class Assignment: "true (1)"
- Molecule: "CC1(C)CC2C1CCC1(C)OC2(C)CCC1O (configuration not stated)"
  Class Assignment: "false (0)"
- Molecule: "C[C@](N)(Cc1ccc(O)c(O)c1)C(=O)O"
  Class Assignment: "true (1)"
- Molecule: "CCOC(=O)CCCCCCCCCCCCC1C=CCC1 (configuration not stated)"
  Class Assignment: "true (1)"
- Molecule: "CN(Cc1cnc2nc(N)nc(N)c2n1)c1ccc(C(=O)NC(CCC(=O)O)C(=O)O)cc1 (configuration not stated)"
  Class Assignment: "true (1)"
- Molecule: "O=C(O)c1cc(=O)c2c(OCC(O)COc3cccc4oc(C(=O)O)cc(=O)c34)cccc2o1"
  Class Assignment: "true (1)"
- Molecule: "Cc1cccc(CN2CCN(C(c3ccccc3)c3ccc(Cl)cc3)CC2)c1 (configuration not stated)"
  Class Assignment: "true (1)"
- Molecule: "CN(C)CCCO[C@H]1[C@@H](C(O)CO)OC2OC(C)(C)O[C@@H]21 (some centres not stated)"
  Class Assignment: "true (1)"
- Molecule: "COc1ccc(/C=C/C(=O)c2ccc(O)cc2O)cc1"
  Class Assignment: "true (1)"
- Molecule: "CC(Cc1ccc(O)c(O)c1)(NN)C(=O)O (configuration not stated)"
  Class Assignment: "false (0)"
- Molecule: "Nc1c(Br)cc(Br)cc1CNC1CCC(O)CC1 (configuration not stated)"
  Class Assignment: "false (0)"

----------
Assay: chemical genetic growth profiling, strain panel (AID 1159580);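 note: tested at 20 µM; growth read once vehicle control cultures reached saturation at 30 °C; 1 = growth at the plate median or of vehicle wells; lower values mean less growth of the strain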
Condition Details: S. cerevisiae deletion strains, growth OD, locus YNR052C, strain pop2, stronger effect = lower value
About 2,000 (36%) of roughly 5,500 compounds were called active. About 18% were inconclusive and are not listed. The list shows a part of the results.
Listed next: entries and their corresponding normalized growth.
Property Label: normalized growth

- Compound: "Nc1nc2ncc(CNc3ccc(C(=O)N[C@@H](CCC(=O)O)C(=O)O)cc3)nc2c(=O)[nH]1"
  Reported Measurement: 0.994
- Compound: "CC(=O)OCC(=O)[C@@]12OC(C)(C)O[C@@H]1CC1C3C[C@H](F)C4=CC(=O)C=C[C@]4(C)[C@@]3(F)[C@@H](O)C[C@@]12C (stereo partly drawn)"
  Reported Measurement: 1.01
- Compound: "COc1ccc(/C=C/c2cc(O)cc(O)c2)cc1"
  Reported Measurement: 0.914
- Compound: "CCC(CCC(C)C1CCC2C3CC=C4C[C@@H](OC(C)=O)CC[C@]4(C)C3CC[C@]12C)C(C)C (stereo partly drawn)"
  Reported Measurement: 0.961
- Compound: "CC(=O)O[C@H]1CC[C@@]2(C)C(=CCC3C2CC[C@@]2(C)C3CC[C@@H]2C(C)CCCC(C)C)C1 (stereo partly drawn)"
  Reported Measurement: 1.02
- Compound: "CC[C@@]1(C2O[C@@H](C3O[C@@](O)(CC)[C@H](C)C[C@@H]3C)C[C@@H]2C)CC[C@H]([C@]2(C)CCC3(C[C@H](O)[C@@H](C)[C@@H]([C@H](C)[C@@H](OC)[C@H](C)C(=O)O)O3)O2)O1 (stereo partly drawn)"
  Reported Measurement: 0.988
- Compound: "CC[C@@H]1[C@@H](O)N2C3C[C@H]1C1C(O)[C@]4(C[C@@H]12)c1ccccc1N(C)[C@@H]34 (stereo partly drawn)"
  Reported Measurement: 0.982
- Compound: "COc1cc(O)cc(/C=C/c2ccccc2)c1"
  Reported Measurement: 0.855
